Each entry below lists one item and its recorded concentration at 2 h value.
PROCEDURE DETAILS: Drug level in mouse brain at 10 mg/kg, sc after 2 hrs
Format: ADME, organism-based
Set-up: dose 10 mg/kg, route subcutaneous
CONDITION DESCRIPTION: read-out: Drug uptake
Return type: number; implicit unit ng/g.

C[C@@H]1CN(Cc2ccc(-c3ccc(F)c(Cl)c3)cc2)C(=O)O1 : 2750

For the next question, use this compound.
I'd like to know its concentration at 2 h. The compound in question is "C[C@@H]1CN(Cc2ccc(-c3ccc(F)cc3F)cc2)C(=O)O1"
2230

----------
PROCEDURE DETAILS: Ratio of drug level in mouse brain to plasma at > 32 mg/kg, sc after 30 mins
Format: ADME, organism-based
Design: dose 32 mg/kg, route subcutaneous
VALUE TYPE: Kp at 0.5 h
Form rule: numeric answer, no unit written next to it.

I'd like to know its Kp at 0.5 h. The molecule in question is CC(Oc1ccc(CN2C[C@@H](C)OC2=O)cc1)C1CCCCC1 (single isomer, unassigned)
3

----------
PROCEDURE DETAILS: Oral bioavailability in rat at 10 mg/kg
Assay type: ADME, organism-based
CONDITION DESCRIPTION: in vivo
VALUE TYPE: bioavailability (%)
Return type: number; implicit unit %.

I'd like to know its bioavailability. The compound in question is "C[C@@H]1CN(Cc2ccc(-c3ccc(F)c(Cl)c3)cc2)C(=O)O1"
64

----------
PROCEDURE DETAILS: Drug level in mouse brain at > 32 mg/kg, sc after 30 mins
Format: ADME, organism-based
Set-up: dose 32 mg/kg, route subcutaneous
CONDITION DESCRIPTION: read-out: Drug uptake
VALUE TYPE: concentration at 0.5 h (ng/g)
Return type: number; implicit unit ng/g.

I'd like to know its concentration at 0.5 h. The compound in question is "C[C@@H]1CN(Cc2ccc(-c3ccc(OC(F)(F)F)cc3F)nc2)C(=O)O1"
10100

----------
Each entry below lists one item and its recorded concentration at 2 h value.
PROCEDURE DETAILS: Plasma concentration in mouse at 10 mg/kg, sc after 2 hrs
Format: ADME, organism-based
Design: dose 10 mg/kg, route subcutaneous
CONDITION DESCRIPTION: read-out: Drug uptake
Return type: number; implicit unit ng/mL.

C[C@@H]1CN(Cc2ccc(-c3ccc(F)c(Cl)c3)cc2)C(=O)O1 : 750

For the next question, use this compound.
I'd like to know its concentration at 2 h. The compound in question is "C[C@@H]1CN(Cc2ccc(-c3ccc(F)cc3F)cc2)C(=O)O1"
1070

----------
PROCEDURE DETAILS: Ratio of drug level in mouse brain to plasma at 10 mg/kg, sc after 2 hrs
Format: ADME, organism-based
Parameters: dose 10 mg/kg, route subcutaneous
Each entry below lists one item and its recorded Kp at 2 h value.

C[C@@H]1CN(Cc2ccc(-c3ccc(F)c(Cl)c3)cc2)C(=O)O1 : 3.7

I'd like to know its Kp at 2 h. The molecule in question is "C[C@@H]1CN(Cc2ccc(-c3ccc(F)cc3F)cc2)C(=O)O1"
2.1

----------
PROCEDURE DETAILS: Plasma concentration in mouse at > 32 mg/kg, sc after 30 mins
Format: ADME, organism-based
Parameters: dose 32 mg/kg, route subcutaneous
CONDITION DESCRIPTION: read-out: Drug uptake
VALUE TYPE: concentration at 0.5 h (ng/mL)
Return type: number; implicit unit ng/mL.

I'd like to know its concentration at 0.5 h. The molecule in question is "C[C@@H]1CN(Cc2ccc(-c3ccc(OC(F)(F)F)cc3F)nc2)C(=O)O1"
3550
